biological target: human P2X7 (UniProt Q99572); assay: Intracellular Calcium Flux (FLIPR) Assay; format: cell-based
measured_quantity: pIC50

>  <compound>
Cc1cc(Cl)c(OCCO)cc1Nc1nnc2n1[C@H](c1ccc(F)cc1)C[S@@+]([O-])C2

>  <pIC50>
7.705

$$$$
>  <compound>
Cn1nccc(-c2ccc(F)c(Nc3nnc4n3[C@H](c3ccc(F)cc3)COC4)c2)c1=O

>  <pIC50>
8.035

$$$$
>  <compound>
COc1cc(Br)c(Nc2nnc3n2C(c2ccc(F)cc2)C[S+]([O-])C3)cc1OC (centres unmarked)

>  <pIC50>
7.4167

$$$$
>  <compound>
Cc1cnn(-c2ccc(C)c(Nc3nnc4n3[C@H](c3ccc(F)cc3)COC4)c2)c1

>  <pIC50>
7.855

$$$$
>  <compound>
COc1cc(Br)c(Nc2nnc3n2C(c2ccc(F)cc2)CSC3)cc1OC (centres unmarked)

>  <pIC50>
7.625

$$$$
>  <compound>
Cc1cc(Cl)c(OCCO)cc1Nc1nnc2n1[C@H](c1ccc(F)cc1)CCC2

>  <pIC50>
7.133

$$$$
>  <compound>
C[C@H](CO)N1Cc2c(Nc3nnc4n3C(c3cccc(F)c3)COC4)ccc(Cl)c2C1=O (some centres unmarked)

>  <pIC50>
5.625

$$$$
>  <compound>
O=c1[nH]nccc1-c1ccc(Br)c(Nc2nnc3n2[C@H](c2ccc(F)cc2)COC3)c1

>  <pIC50>
8.2

$$$$
>  <compound>
COc1cc(Br)c(Nc2nnc3n2C(c2ccccc2)CC2(C3)OCCO2)cc1OC (centres unmarked)

>  <pIC50>
6.2

$$$$
>  <compound>
Cc1ccc2[nH]c(=O)ccc2c1Nc1nnc2n1[C@H](c1ccc(F)cc1)COC2

>  <pIC50>
7.46

$$$$
>  <compound>
COc1cc(Br)c(Nc2nnc3n2C(c2ccccc2)CCC3)cc1OC (centres unmarked)

>  <pIC50>
7.25

$$$$
>  <compound>
Cc1ccc(-c2cc(C)n(C[C@H](O)CO)n2)cc1Nc1nnc2n1[C@H](c1ccc(F)cc1)COC2

>  <pIC50>
7.755

$$$$
>  <compound>
Cc1ccc(-c2cc(C)n(C[C@@H](C)O)n2)cc1Nc1nnc2n1[C@H](c1ccc(F)cc1)COC2

>  <pIC50>
7.45

$$$$
>  <compound>
CCc1c(Nc2nnc3n2[C@H](c2ccc(F)cc2)CCC3)ccc2ncccc12

>  <pIC50>
7.693

$$$$
>  <compound>
Cc1cc(-c2ccc(C)c(Nc3nnc4n3[C@H](c3ccc(F)cc3)COC4)c2)n[nH]1

>  <pIC50>
7.62

$$$$
>  <compound>
Cc1ccc2ncccc2c1Nc1nnc2n1C(c1cccc(F)c1)COC2 (centres unmarked)

>  <pIC50>
7.735

$$$$
>  <compound>
COc1cc(C)c(Nc2nnc3n2C(c2ccc(F)cc2)CS(=O)(=O)C3)cc1OC (centres unmarked)

>  <pIC50>
6.96

$$$$
